Tested on: Pseudomonas aeruginosa 4158-02
Experiment: microbe, parasite or virus in culture
Settings: checkerboard; peptides with MIC >250 μg/mL assigned 500 μg/mL; synergistic if ≤ 0.5
REPORTED ENDPOINT: FIC index of peptide-novobiocin combination

INSERT INTO measurements (substance, assay_value) VALUES
  ('FWLRNIRKVR-NH2 [P 48]', 'low FIC indices'),
  ('FWQRRIRKVRR-NH2 [P 15]', 'low FIC indices');

###

Tested on: P. aeruginosa strain PAO1
Details: in the presence of subinhibitory concentrations of peptide P22; strain PAO1
REPORTED ENDPOINT: final MIC of antibiotic
Answer format: number, then unit.

Check out these entries, answers already filled in.
INSERT INTO results (molecule, reported_endpoint, assay_value) VALUES
  ('CC1(C)S[C@@H]2[C@H](NC(=O)[C@H](N)c3ccccc3)C(=O)N2[C@H]1C(=O)O [ampicillin]', 'final MIC of antibiotic', '5 µg/mL'),
  ('CC[C@H]1OC(=O)[C@H](C)[C@@H](O[C@H]2C[C@@](C)(OC)[C@@H](O)[C@H](C)O2)[C@H](C)[C@@H](O[C@@H]2O[C@H](C)C[C@H](N(C)C)[C@H]2O)[C@](C)(O)C[C@@H](C)C(=O)[C@H](C)[C@@H](O)[C@]1(C)O [erythromycin]', 'final MIC of antibiotic', '1 µg/mL'),
  ('CO[C@@H]1[C@@H](OC(N)=O)[C@@H](O)[C@H](Oc2ccc3c(O)c(NC(=O)c4ccc(O)c(CC=C(C)C)c4)c(=O)oc3c2C)OC1(C)C [novobiocin, reference compound]', 'final MIC of antibiotic', '5 µg/mL'),
  ('CO[C@H]1/C=C/O[C@@]2(C)Oc3c(C)c(O)c4c(O)c(c(/C=N/N5CCN(C)CC5)c(O)c4c3C2=O)NC(=O)/C(C)=C\C=C\[C@H](C)[C@H](O)[C@@H](C)[C@@H](O)[C@@H](C)[C@H](OC(C)=O)[C@@H]1C [rifampicin]', 'final MIC of antibiotic', '0.07 µg/mL');

Consider CCn1cc(C(=O)O)c(=O)c2ccc(C)nc21 [nalidixic acid] . Its measured final MIC of antibiotic is 2 µg/mL

Noted for CC1(C)S[C@@H]2[C@H](NC(=O)[C@H](N)c3ccc(O)cc3)C(=O)N2[C@H]1C(=O)O [amoxicillin] : its final MIC of antibiotic reads 2 µg/mL
